species on record: Homo sapiens; assay: Induction of recombinant PP2A catalytic subunit (unknown origin) activity assessed as phosphate level at 5 uM relative to control
compounds and their reported fold change (FC)
Format: numeric value only, no unit, no commentary.

Known results for compounds:
compound.structure.string	fold change (FC)
CCCCCCCCCCCCC/C=C/[C@H](O)[C@@H](CO)NC(C)=O	8
CCCCCCCCc1ccc(CCC(CO)(CO)NC(C)=O)cc1	8
CCCCCCCCc1ccc(CCC(CO)(CO)NC(=O)CC[P+](c2ccccc2)(c2ccccc2)c2ccccc2)cc1.[Br-]	4

Read the next record carefully.
I am curious: what fold change (FC) value has been reported for CCCCCCCCc1ccc(CCC(N)(CO)CO)cc1 ?
4
